Here, each record is paired with measured inhibition at 1000 µM data.
target: (H^+ +K^+) ATPase (Sus scrofa, UniProt P19156); construct: prepared from fresh pieces of the fundus ventriculi of hog stomach; from tissue; host or cells: hog stomach, fundus ventriculi (fresh pieces), prepared by the method of Saccomani et al., J. Biol. Chem. 1976; assay: Inhibitory effect on (H^+ +K^+) ATPase; format: biochemical, hog; conditions: at 1 × 10^-3 M; in vitro; read-out: Degree of inhibition, Inhibitory effect on (H^+ + K^+) ATPase
Sequence (P19156 2-1034 limits assumed): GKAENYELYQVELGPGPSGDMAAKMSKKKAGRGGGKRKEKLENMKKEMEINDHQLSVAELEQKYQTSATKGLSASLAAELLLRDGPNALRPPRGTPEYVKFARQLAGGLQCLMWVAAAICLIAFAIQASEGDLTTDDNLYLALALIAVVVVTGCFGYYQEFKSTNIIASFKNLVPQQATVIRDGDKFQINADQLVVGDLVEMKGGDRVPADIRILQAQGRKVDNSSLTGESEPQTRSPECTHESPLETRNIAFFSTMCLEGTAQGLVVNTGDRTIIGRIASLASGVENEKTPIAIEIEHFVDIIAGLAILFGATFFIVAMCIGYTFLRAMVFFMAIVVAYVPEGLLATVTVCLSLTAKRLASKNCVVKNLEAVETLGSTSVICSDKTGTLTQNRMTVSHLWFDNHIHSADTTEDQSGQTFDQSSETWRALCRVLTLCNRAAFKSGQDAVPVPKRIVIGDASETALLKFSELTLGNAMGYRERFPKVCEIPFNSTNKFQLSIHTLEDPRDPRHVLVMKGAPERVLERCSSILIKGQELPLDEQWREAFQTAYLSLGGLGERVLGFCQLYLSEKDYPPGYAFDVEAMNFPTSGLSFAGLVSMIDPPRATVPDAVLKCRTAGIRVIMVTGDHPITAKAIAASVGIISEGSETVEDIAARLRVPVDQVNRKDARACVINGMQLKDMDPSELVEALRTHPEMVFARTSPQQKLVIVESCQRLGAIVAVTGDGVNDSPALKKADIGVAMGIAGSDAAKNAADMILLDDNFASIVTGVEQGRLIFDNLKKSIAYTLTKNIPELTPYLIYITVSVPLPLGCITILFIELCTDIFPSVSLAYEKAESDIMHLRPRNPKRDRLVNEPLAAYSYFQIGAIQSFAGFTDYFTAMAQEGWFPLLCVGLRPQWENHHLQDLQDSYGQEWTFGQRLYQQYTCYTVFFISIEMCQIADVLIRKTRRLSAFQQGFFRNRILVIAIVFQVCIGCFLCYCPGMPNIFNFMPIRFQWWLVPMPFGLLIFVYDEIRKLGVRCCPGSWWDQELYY
Sequence (P18434 whole entry partner): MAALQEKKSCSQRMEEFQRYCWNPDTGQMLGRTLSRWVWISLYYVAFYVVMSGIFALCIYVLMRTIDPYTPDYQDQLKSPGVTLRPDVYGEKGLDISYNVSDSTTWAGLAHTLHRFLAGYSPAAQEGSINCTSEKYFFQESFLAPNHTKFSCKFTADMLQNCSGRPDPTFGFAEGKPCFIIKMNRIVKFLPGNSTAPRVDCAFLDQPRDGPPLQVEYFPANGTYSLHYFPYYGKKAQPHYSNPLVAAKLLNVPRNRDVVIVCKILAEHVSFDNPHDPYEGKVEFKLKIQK
Write the answer as a number in %, unit excluded.

Take a look at these entries with their results.
1) COc1cc(C[S+]([O-])c2nc3nc(OC(C)C)ccc3[nH]2)ncc1C (centres unmarked) | 96.1
2) CCCOc1ccc2[nH]c([S+]([O-])Cc3ncc(C)cc3C)nc2n1 (centres unmarked) | 92.3
3) COc1ccc2[nH]c([S+]([O-])Cc3ncc(C)c(OC)c3C)nc2c1 (centres unmarked) [Omeprazole, reference compound] | 38.7
4) CCCCCCCOc1ccc2[nH]c([S+]([O-])Cc3ncc(C)cc3C)nc2n1 (centres unmarked) | 95.4
5) COc1c(C)cnc(C[S+]([O-])c2nc3ncc(OCCCC4CCCC4)cc3[nH]2)c1C (centres unmarked) | 93
6) Cc1cnc(C[S+]([O-])c2nc3nc(OCC4CC4)ccc3[nH]2)c(C)c1 (centres unmarked) | 100
7) COc1cc(C[S+]([O-])c2nc3nc(OCC(C)C)ccc3[nH]2)ncc1C (centres unmarked) | 97.4
8) COc1ccnc(C[S+]([O-])c2nc3nc(OCC(C)C)ccc3[nH]2)c1 (centres unmarked) | 94.6
9) Cc1cnc(C[S+]([O-])c2nc3nc(OC(C)C)ccc3[nH]2)c(C)c1 (centres unmarked) | 90
10) COc1ccc2[nH]c([S+]([O-])Cc3ncc(C)cc3C)nc2n1 (centres unmarked) | 100

Ask: Return value of inhibition at 1000 µM for input Cc1cnc(C[S+]([O-])c2nc3nc(OCC(C)C)ccc3[nH]2)c(C)c1 (centres unmarked) , no commentary.
Reply: 100

Ask: Return value of inhibition at 1000 µM for input Cc1cnc(C[S+]([O-])c2nc3nc(OCCC(C)C)ccc3[nH]2)c(C)c1 (centres unmarked) , no commentary.
Reply: 98.5

Ask: Return value of inhibition at 1000 µM for input COc1ccnc(C[S+]([O-])c2nc3nc(OCC4CC4)ccc3[nH]2)c1 (centres unmarked) , no commentary.
Reply: 92.9

Ask: Return value of inhibition at 1000 µM for input COc1ccc2[nH]c([S+]([O-])Cc3cc(OC)c(C)cn3)nc2n1 (centres unmarked) , no commentary.
Reply: 100

Ask: Return value of inhibition at 1000 µM for input COc1c(C)cnc(C[S+]([O-])c2nc3nc(OCC(C)C)ccc3[nH]2)c1C (centres unmarked) , no commentary.
Reply: 100

Ask: Return value of inhibition at 1000 µM for input COc1ccc2[nH]c([S+]([O-])Cc3ncc(C)c(C)c3C)nc2n1 (centres unmarked) , no commentary.
Reply: 100

Ask: Return value of inhibition at 1000 µM for input COc1c(C)cnc(C[S+]([O-])c2nc3nc(OCC(F)(F)F)ccc3[nH]2)c1C (centres unmarked) , no commentary.
Reply: 100

Ask: Return value of inhibition at 1000 µM for input CCOc1ccc2[nH]c([S+]([O-])Cc3ncc(C)cc3C)nc2n1 (centres unmarked) , no commentary.
Reply: 100

Ask: Return value of inhibition at 1000 µM for input COc1ccc2[nH]c([S+]([O-])Cc3ncc(C)c(OC)c3C)nc2n1 (centres unmarked) , no commentary.
Reply: 96.6

Ask: Return value of inhibition at 1000 µM for input COc1cc(C[S+]([O-])c2nc3nc(OCC4CC4)ccc3[nH]2)ncc1C (centres unmarked) , no commentary.
Reply: 87.4

Ask: Return value of inhibition at 1000 µM for input COc1c(C)cnc(C[S+]([O-])c2nc3nc(OCC4CC4)ccc3[nH]2)c1C (centres unmarked) , no commentary.
Reply: 100

Ask: Return value of inhibition at 1000 µM for input COc1c(C)cnc(C[S+]([O-])c2nc3nc(OC(C)C)ccc3[nH]2)c1C (centres unmarked) , no commentary.
Reply: 98.5

Ask: Return value of inhibition at 1000 µM for input COc1cc(C[S+]([O-])c2nc3nccc(OC)c3[nH]2)ncc1C (centres unmarked) , no commentary.
Reply: 98.8

Ask: Return value of inhibition at 1000 µM for input CCOc1ccc2[nH]c([S+]([O-])Cc3ncc(C)c(C)c3C)nc2n1 (centres unmarked) , no commentary.
Reply: 100
